target: recombinant human CCL20 (R&D Systems, #360-MP-025/CF) (human, UniProt P78556 27-96); assay: cell-based or functional assay
Sequence (P78556 other isoform, or with tags, fused parts or gaps limits assumed): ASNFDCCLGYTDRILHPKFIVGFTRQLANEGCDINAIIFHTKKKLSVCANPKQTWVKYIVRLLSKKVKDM
Quick rule for you: IC95 of chemotaxis inhibition at 9 nM or higher means Satisfied, lower means Not satisfied.

Binder	Category
humanized anti-human CCL20 antibody 36LK3/42HKK3 (antibody, human IgG1, kappa, V domains shown) VH: QVQLVQSGAEVKKPGASVKVSCKASGYTFTSYWMHWVRQAPGQGLEWMGLIDPSDKYTNYNQKFKGKATLTVDTSTSTAYMELSSLRSEDTAVYYCTRGNYGVDYGMDYWGQGTLVTVSS VL: DIQMTQSPSSLSASVGDRVTITCGASENIYGALNWYQRKPGKAPKLLIYGATNLADGVPSRFSGSGSGRDYTLTISSLQPEDFATYYCQNVLITPYTFGQGTKLEIKR	Satisfied
humanized anti-human CCL20 antibody 36LK3/42HKK2 (antibody, human IgG1, kappa, V domains shown) VH: QVQLVQSGAEVKKPGASVKVSCKASGYTFTSYWMHWVRQAPGQGLEWMGLIDPSDKYTNYNQKFKGRVTLTVDTSTSTVYMELSSLRSEDTAVYYCTRGNYGVDYGMDYWGQGTLVTVSS VL: DIQMTQSPSSLSASVGDRVTITCGASENIYGALNWYQRKPGKAPKLLIYGATNLADGVPSRFSGSGSGRDYTLTISSLQPEDFATYYCQNVLITPYTFGQGTKLEIKR	Satisfied
humanized anti-human CCL20 antibody 36LK3/36HC3 (antibody, human IgG1, kappa, V domains shown) VH: QVQLVQSGAEVKKPGASVKVSCKASGYTFTNYWMHWVKQAPGQGLEWIGVIDPSDSYTTYNQKFKGKATMTRDTSTSTVYMELSSLRSEDTAVYYCTRGNYGVDYAMDYWGQGTSVTVSS VL: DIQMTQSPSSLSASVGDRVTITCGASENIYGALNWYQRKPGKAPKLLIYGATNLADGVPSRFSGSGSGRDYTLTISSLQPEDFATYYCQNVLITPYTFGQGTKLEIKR	Not satisfied
humanized anti-human CCL20 antibody 36LC3/36HKK3 (antibody, human IgG1, kappa, V domains shown) VH: QVQLVQSGAEVKKPGASVKVSCKASGYTFTNYWMHWVRQAPGQGLEWMGVIDPSDSYTTYNQKFKGKATLTVDTSTSTAYMELSSLRSEDTAVYYCTRGNYGVDYAMDYWGQGTLVTVSS VL: DIQMTQSPSSLSASVGDRVTITCRASENIYGALNWYQQKPGKAPKLLIYGATNLADGVPSRFSGSGSGRQYSLTISSLQPEDFATYYCQNVLITPYTFGGGTKLEIKR	Satisfied
